system-name: Plasminogen activator inhibitor 1 (Homo sapiens, UniProt P05121)
Sequence (P05121 whole entry): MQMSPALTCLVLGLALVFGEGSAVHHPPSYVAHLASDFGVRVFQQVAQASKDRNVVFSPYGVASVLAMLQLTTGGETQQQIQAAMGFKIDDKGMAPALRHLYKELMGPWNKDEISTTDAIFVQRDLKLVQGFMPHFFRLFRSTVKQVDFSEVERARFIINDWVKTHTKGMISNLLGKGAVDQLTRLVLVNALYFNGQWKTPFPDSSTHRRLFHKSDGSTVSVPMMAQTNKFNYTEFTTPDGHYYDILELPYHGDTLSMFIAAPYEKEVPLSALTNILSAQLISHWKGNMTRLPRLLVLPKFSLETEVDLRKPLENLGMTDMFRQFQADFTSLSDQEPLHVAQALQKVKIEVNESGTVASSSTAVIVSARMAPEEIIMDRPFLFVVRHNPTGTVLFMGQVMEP
test-name: Tissue plasminogen activator generation in plasmin was evaluated by measuring the ability to inhibit Plasminogen activator inhibitor-1 through complex assay
recorded-metric: pIC50
Scale: negative log10 of molar concentration, which is what pIC50 denotes.

IN: State its pIC50 for this compound: `O=C(O)CCCCCCCOc1ccc(/C=c2\[nH]c(=O)/c(=C/c3ccc(NC(=O)c4cccs4)cc3)[nH]c2=O)cc1`
OUT: 6.29

----------
system-name: Plasminogen activator inhibitor 1 (Homo sapiens, UniProt P05121)
test-name: Inhibitory activity of compound against Plasminogen activator inhibitor-1
Measured pIC50 values are reported for all entries that follow.
Hey, just a heads up that pIC50 is the negative log base 10 of the concentration in molar.

Below, each entry is followed by its recorded pIC50 result.
1. O=C(O)CCCCCCC(=O)Nc1ccc(/C=c2\[nH]c(=O)/c(=C/c3ccc(NC(=O)c4cccs4)cc3)[nH]c2=O)cc1 ... 6.28
2. COC(=O)CCCCCCC(=O)Nc1ccc(/C=c2\[nH]c(=O)/c(=C/c3ccc(NC(=O)c4cccs4)cc3)[nH]c2=O)cc1 ... 5.32
3. O=C(O)CCCCCCCOc1ccc(/C=c2\[nH]c(=O)/c(=C/c3ccc(NC(=O)c4cccs4)cc3)[nH]c2=O)cc1 ... 6.70

IN: Let me know recorded pIC50 for `O=C(O)CCCCOc1ccc(/C=c2\[nH]c(=O)/c(=C/c3ccc(NC(=O)c4cccs4)cc3)[nH]c2=O)cc1` , thanks.
OUT: 5.76

IN: // Input: `O=C(O)CCCCOc1ccc(/C=c2\[nH]c(=O)/c(=C/c3ccccc3)[nH]c2=O)cc1` . Output its pIC50 only.
OUT: 4.82

IN: Give a short answer stating reported pIC50 for `COC(=O)CCCCCCCOc1ccc(/C=c2\[nH]c(=O)/c(=C/c3ccc(NC(=O)c4cccs4)cc3)[nH]c2=O)cc1` .
OUT: 5.71

IN: Look up and state reported pIC50 for `CN(C)CCSc1ccc(/C=c2\[nH]c(=O)/c(=C/c3ccc(Br)cc3)[nH]c2=O)s1`
OUT: 4.88

IN: Annotate the compound `CN(C)CCSc1ccc(/C=c2\[nH]c(=O)/c(=C/c3ccc(NC(=O)c4ccccc4)cc3)[nH]c2=O)s1` with its measured pIC50.
OUT: 5.21

IN: Recall and state the measured pIC50 for `O=C(O)CCCOc1ccc(/C=c2\[nH]c(=O)/c(=C/c3ccccc3)[nH]c2=O)cc1` .
OUT: 4.70

IN: Give pIC50 for `CN(C)CCSc1ccc(/C=c2\[nH]c(=O)/c(=C/c3ccccc3)[nH]c2=O)s1`
OUT: 5.46

IN: Supply pIC50 value. Item: `Cc1ccc(/C=c2\[nH]c(=O)/c(=C/c3ccc(SCCN(C)C)s3)[nH]c2=O)cc1`
OUT: 4.91

IN: For the compound `O=C(O)CCCCCCCCC(=O)Nc1ccc(/C=c2\[nH]c(=O)/c(=C/c3ccc(NC(=O)c4cccs4)cc3)[nH]c2=O)cc1` , give its measured pIC50 value.
OUT: 6.41

IN: Determine its reported pIC50: `COC(=O)c1ccc(/C=c2\[nH]c(=O)/c(=C/c3ccc(SCCN(C)C)s3)[nH]c2=O)cc1`
OUT: 4.75

IN: Return the recorded pIC50 value; entry: `CN(C)CCSc1ccc(/C=c2\[nH]c(=O)/c(=C/c3ccc(NC(=O)c4cccs4)cc3)[nH]c2=O)s1`
OUT: 5.51

IN: Specify measured pIC50 for `COc1ccc(/C=c2\[nH]c(=O)/c(=C/c3ccc(SCCN(C)C)s3)[nH]c2=O)cc1` .
OUT: 4.96
